Biological target: human Norepinephrine Transporter (NET), SLC6A2 (gene 6530)
Test: NVS_TR_hNET: NovaScreen (NVS) Transporter Assay for human Norepinephrine Transporter (NET) (AID 2283377);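 also: cell-free membrane protein extracted from CHO cells expressing human NET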
Records with an inconclusive call do not appear. Active and inactive are the calls of the source. The calls were made as follows: active = hit-call score of the fitted dose curve at least 0.9, where 1 is the maximum; inconclusive = response in the unintended direction; inactive = score below 0.9.
Thanks in advance; please answer with one of these: active, inactive

• CC1=C(/C=C/C(C)=C/C=C/C(C)=C/CO)C(C)(C)CCC1 = inactive
• Nc1nc(N)c2nc(CNc3ccc(C(=O)N[C@@H](CCC(=O)O)C(=O)O)cc3)cnc2n1 = inactive
• CN1CCN(Cc2cc(-c3ccc4[nH]c(=O)oc4c3)co2)[C@@H](c2ccc(F)cc2)C1 = active
• COc1ccc(S(=O)(=O)N2C(=O)[C@@](c3ccccc3OC)(N3C[C@H](O)C[C@H]3C(=O)N(C)C)c3cc(Cl)ccc32)c(OC)c1 = active
• CCCCC(CC)COC(=O)CC(C(=O)OCC(CC)CCCC)S(=O)(=O)O (stereo not drawn) = active
• Cc1cccc(Nc2cc(Cl)nc(SCC(=O)O)n2)c1C = inactive
• CC1(C)CC(N=C=O)CC(C)(CN=C=O)C1 (stereo not drawn) = active

Recorded test call requested for COc1cc(S(=O)(=O)O)c(C)cc1N=Nc1c(O)ccc2cc(S(=O)(=O)O)ccc12
inactive
